The origin of these recorded values is patent US20250171437A1.

- system.under.test: human PAH with the R408W mutation (A375 R408W cells) (Homo sapiens, UniProt P00439, R408W)
- Construct: expressed in transfected cells
- Sequence (P00439 1-452 R408W): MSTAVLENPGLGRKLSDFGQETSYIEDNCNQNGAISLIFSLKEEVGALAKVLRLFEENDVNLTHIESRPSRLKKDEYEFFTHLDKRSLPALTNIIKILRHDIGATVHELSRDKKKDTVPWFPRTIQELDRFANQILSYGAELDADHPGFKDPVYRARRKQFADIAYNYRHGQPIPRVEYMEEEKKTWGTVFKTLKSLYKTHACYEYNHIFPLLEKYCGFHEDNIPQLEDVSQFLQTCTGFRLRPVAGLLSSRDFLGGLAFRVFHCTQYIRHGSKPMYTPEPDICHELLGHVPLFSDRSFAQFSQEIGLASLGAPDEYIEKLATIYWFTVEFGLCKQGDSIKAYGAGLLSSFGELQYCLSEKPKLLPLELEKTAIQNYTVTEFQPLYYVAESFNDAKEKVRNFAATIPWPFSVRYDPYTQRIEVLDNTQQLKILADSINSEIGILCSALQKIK
- measurement.notes: Cell Based Phenylalanine Flux Assay
- test.parameters: A375 cells expressing R408W PAH; 24 hrs with compound, then 20 μM sepiapterin and 800 μM 13C9,15N-Phenylalanine for 4 hours; 13C-Tyrosine by LC-MS; average where tested multiple times
Can you tell me AC50 for the items I'm about to list?

1) O=C(c1cnco1)N1CCc2[nH]cnc2C1c1nc2c(F)cc(F)cc2o1 (stereo not drawn)
1 to 5 µM
2) O=C(c1cnn2cc(CN3CCC(F)(F)C3)ccc12)N1CCc2[nH]cnc2[C@H]1c1nc2cc(F)ccc2o1 (single isomer, unassigned)
1 to 5 µM
3) O=C(c1ccnn1-c1ccccn1)N1CCc2[nH]cnc2C1c1nc2ccccc2o1 (stereo not drawn)
1 to 5 µM
4) COc1cccc2oc(C3c4nc[nH]c4CCN3C(=O)c3cnc(C(C)(C)O)o3)nc12 (stereo not drawn)
1 to 5 µM
5) O=C(Cc1cnco1)N1CCc2[nH]cnc2C1c1nc2cc(F)ccc2o1 (stereo not drawn)
1 to 5 µM

For each entry beneath this line, provide reported AC50.
1. O=C(c1cnn2cc(CCN3CCOCC3)ccc12)N1CCc2[nH]cnc2C1c1nc2cc(F)ccc2o1 (stereo not drawn)
2. Cn1nc(N)cc1C(=O)N1CCc2[nH]cnc2C1c1nc2cc(F)ccc2o1 (stereo not drawn)
3. COCCCc1ccc2c(C(=O)N3CCc4[nH]cnc4C3c3nc4cc(F)ccc4o3)cnn2c1 (stereo not drawn)
4. O=C(c1nccs1)N1CCc2[nH]cnc2C1c1nc2ccc(Br)cc2o1 (stereo not drawn)
5. Cn1nc(C(F)F)nc1C(=O)N1CCc2[nH]cnc2C1c1nc2ccc(F)c(F)c2o1 (stereo not drawn)
6. CC(C)(O)c1cc(C(=O)N2CCc3[nH]cnc3C2c2nc3cccc(F)c3o2)no1 (stereo not drawn)
7. CN(C)CCOc1ccc2c(C(=O)N3CCc4[nH]cnc4C3c3nc4cc(F)ccc4o3)cnn2c1 (stereo not drawn)

1 to 5 µM
≥ 5 µM
≥ 5 µM
≥ 5 µM
1 to 5 µM
1 to 5 µM
≥ 5 µM

----------
For each entry below, report its AC50 value.
- system.under.test: human PAH with the R408W mutation (A375 R408W cells) (Homo sapiens, UniProt P00439, R408W)
- Construct: expressed in transfected cells
- measurement.notes: Cell Based Phenylalanine Flux Assay
- test.parameters: A375 R408W cells; 24 hrs with compound, then 20 μM sepiapterin and 800 μM 13C9,15N-Phenylalanine for 4 hours; 13C-Tyrosine by LC-MS; average where tested multiple times

1. CC(C)(O)c1nc(C(F)F)c(C(=O)N2CCc3[nH]cnc3[C@@H]2c2nc3cc(Cl)cc(F)c3o2)o1
≤ 500 nM
2. O=C(c1oc(-c2ccccn2)nc1C(F)F)N1CCc2[nH]cnc2[C@@H]1c1nc2cc(F)ccc2o1
1000 to 5000 nM
3. CN1CCN(c2ccc3c(C(=O)N4CCc5[nH]cnc5[C@H]4c4nc5c(F)cccc5o4)cnn3c2)CC1
≤ 500 nM
4. O=C(c1nnc(-c2cccnc2)o1)N1CCc2[nH]cnc2[C@@H]1c1nc2cc(F)ccc2o1
1000 to 5000 nM
5. O=C(c1ocnc1C(F)(F)F)N1CCc2[nH]cnc2[C@@H]1c1nc2ccccc2o1
500 to 1000 nM

Go through the list and state AC50 for each entry.
1. O=C(c1oc(C2(O)CC2)nc1C(F)F)N1CCc2[nH]cnc2[C@@H]1c1nc2ccc(F)cc2o1
2. O=C(c1oc(COC(F)(F)F)nc1C(F)F)N1CCc2[nH]cnc2[C@@H]1c1nc2cc(F)ccc2o1

1000 to 5000 nM
1000 to 5000 nM

----------
Would you kindly list AC50 for each of these compounds?
- system.under.test: human PAH with the R408W mutation (A375 R408W cells) (Homo sapiens, UniProt P00439, R408W)
- Construct: expressed in transfected cells
- measurement.notes: Cell Based Phenylalanine Flux Assay
- test.parameters: A375 R408W cells; 24 hrs with compound, then 20 μM sepiapterin and 800 μM 13C9,15N-Phenylalanine for 4 hours; 13C-Tyrosine by LC-MS; average where tested multiple times

Record excerpt, results attached:
1. O=C(c1oc(-c2cnccn2)nc1C(F)F)N1CCc2[nH]cnc2[C@H]1c1nc2cc(F)ccc2o1 [Example 527]
≤ 500 nM
2. CC(O)c1nc(Cl)c(C(=O)N2CCc3[nH]cnc3[C@@H]2c2nc3cc(F)ccc3o2)o1 (single isomer, unassigned) [Example 234]
1000 to 5000 nM
3. O=C(c1cnco1)N1CCc2[nH]cnc2[C@H]1c1nc2cc(F)cc(F)c2o1 [Example 575]
1000 to 5000 nM
4. O=C(c1ocnc1CF)N1CCc2[nH]cnc2[C@@H]1c1nc2cc(F)ccc2o1 [Example 180]
1000 to 5000 nM
5. O=C(c1ocnc1C(F)F)N1CCc2[nH]cnc2[C@H]1c1nc2cc(OC(F)(F)F)ccc2o1 [Example 354]
≤ 500 nM

For each listed entry, give its AC50.
1. O=C(c1nnc(-c2ccccn2)o1)N1CCc2[nH]cnc2[C@H]1c1nc2c(F)ccc(F)c2o1 [Example 520]
2. Cc1ccc(F)c2nc([C@H]3c4nc[nH]c4CCN3C(=O)c3oc(C(C)(C)O)nc3C(F)F)oc12 [Example 724]
3. CCn1cnnc1C(=O)N1CCc2[nH]cnc2[C@@H]1c1nc2cc(F)ccc2o1 [Example 886]
4. CC(O)c1nc(Br)c(C(=O)N2CCc3[nH]cnc3[C@H]2c2nc3cc(F)ccc3o2)o1 (single isomer, unassigned) [Example 226]
5. Cc1ccc2oc([C@@H]3c4nc[nH]c4CCN3C(=O)c3ocnc3C(F)F)nc2c1 [Example 137]
6. O=C(CC1CC1)N1CCc2[nH]cnc2[C@@H]1c1nc2ccc(Br)cc2o1 [Example 4]
7. Cc1ccc2oc([C@H]3c4nc[nH]c4CCN3C(=O)c3oc(-c4ccn(C)n4)nc3C(F)F)nc2c1 [Example 756]
8. Cc1nc(C(=O)N2CCc3[nH]cnc3[C@@H]2c2nc3cccc(C)c3o2)n(C)n1 [Example 908]

["≤ 500 nM", "1000 to 5000 nM", "1000 to 5000 nM", "≤ 500 nM", "≤ 500 nM", "≥ 5000 nM", "1000 to 5000 nM", "1000 to 5000 nM"]

Batch request: AC50 for each of the following compounds.
1. O=C(c1ocnc1C(F)(F)F)N1CCc2[nH]cnc2[C@@H]1c1nc2c(F)cccc2o1 [Example 168]
2. CC(C)(O)c1nc(C(F)(F)F)c(C(=O)N2CCc3[nH]cnc3[C@H]2c2nc3cccc(F)c3o2)o1 [Example 253]

1: 1000 to 5000 nM; 2: ≤ 500 nM

----------
- system.under.test: human PAH with the R408W mutation (A375 R408W cells) (Homo sapiens, UniProt P00439, R408W)
- Construct: expressed in transfected cells
- Sequence (P00439 1-452 R408W): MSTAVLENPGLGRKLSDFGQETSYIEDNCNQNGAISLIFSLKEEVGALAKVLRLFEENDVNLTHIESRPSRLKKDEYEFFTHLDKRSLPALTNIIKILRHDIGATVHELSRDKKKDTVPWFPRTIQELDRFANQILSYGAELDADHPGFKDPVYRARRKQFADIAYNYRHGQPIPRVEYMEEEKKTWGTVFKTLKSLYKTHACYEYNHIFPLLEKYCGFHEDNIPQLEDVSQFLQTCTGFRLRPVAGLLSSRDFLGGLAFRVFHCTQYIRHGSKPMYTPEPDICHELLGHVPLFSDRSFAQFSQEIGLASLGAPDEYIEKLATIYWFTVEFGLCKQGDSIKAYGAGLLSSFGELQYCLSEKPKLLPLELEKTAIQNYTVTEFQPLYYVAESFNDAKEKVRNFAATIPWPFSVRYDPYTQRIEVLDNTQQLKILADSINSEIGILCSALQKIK
- measurement.notes: Cell Based Phenylalanine Flux Assay
- test.parameters: A375 R408W cells; 24 hrs with compound, then 20 μM sepiapterin and 800 μM 13C9,15N-Phenylalanine for 4 hours; 13C-Tyrosine by LC-MS; average where tested multiple times
assay.metric: AC50

1. Cc1cccc2oc([C@H]3c4nc[nH]c4CCN3C(=O)c3nc(C(F)F)nn3C)nc12
1000 to 5000 nM
2. O=C(c1cnn2cc(N3CCOCC3)ccc12)N1CCc2[nH]cnc2[C@H]1c1nc2cccc(F)c2o1
500 to 1000 nM
3. O=C(c1nnc(-c2cc(C(F)(F)F)ccn2)o1)N1CCc2[nH]cnc2[C@@H]1c1nc2cc(F)ccc2o1
1000 to 5000 nM
4. Cc1cccc2oc([C@H]3c4nc[nH]c4CCN3C(=O)c3ocnc3C(F)F)nc12
1000 to 5000 nM
5. Cn1cc(-c2ncc(C(=O)N3CCc4[nH]cnc4[C@H]3c3nc4cc(F)ccc4o3)s2)cn1
≤ 500 nM

The following compounds each have a reported value; give each one's AC50.
1. Cc1ccc2oc([C@H]3c4nc[nH]c4CCN3C(=O)c3oc(-c4cncn4C)nc3C(F)F)nc2c1
2. CC(C)(O)c1nc(C(F)F)c(C(=O)N2CCc3[nH]cnc3[C@@H]2c2nc3cc(Br)ccc3o2)o1
3. CC(C)(O)c1ncc(C(=O)N2CCc3[nH]cnc3[C@H]2c2nc3c(F)cccc3o2)o1
4. O=C(c1ocnc1CC(F)F)N1CCc2[nH]cnc2[C@H]1c1nc2cccc(F)c2o1
5. O=C(c1ocnc1C(F)F)N1CCc2[nH]cnc2[C@H]1c1nc2ccc(Br)cc2o1
6. CC(F)(F)c1ncoc1C(=O)N1CCc2[nH]cnc2[C@H]1c1nc2cccc(F)c2o1
7. O=C(c1nnc(-c2cnn(C(F)F)c2)o1)N1CCc2[nH]cnc2[C@H]1c1nc2ccccc2o1

["1000 to 5000 nM", "500 to 1000 nM", "1000 to 5000 nM", "≤ 500 nM", "≤ 500 nM", "≤ 500 nM", "≤ 500 nM"]

Each compound below has a recorded value; state its AC50.
1. O=C(c1ccnn1CC(F)F)N1CCc2[nH]cnc2[C@H]1c1nc2c(F)cccc2o1
2. Cc1ccc2nc([C@@H]3c4nc[nH]c4CCN3C(=O)c3nnc(-c4ccn(C(F)F)n4)o3)oc2c1

1000 to 5000 nM
500 to 1000 nM

Below are 2 compounds. Give each one its AC50.
1. Cc1cccc2nc([C@H]3c4nc[nH]c4CCN3C(=O)c3nnc(-c4ncccc4F)o3)oc12
2. COc1cccc2nc([C@H]3c4nc[nH]c4CCN3C(=O)c3nc(C(F)(F)F)nn3C)oc12

1: 1000 to 5000 nM; 2: 1000 to 5000 nM
